Answer each item with its documented Cell Viability.
Tested on: Colon cancer organoid
assay remarks: Optimized Dual-Glo assay to identify co-culture induced drug vulnerabilities using donated chemical probes and chemogenomics kinase set in O06 CRC organoid and F06 CAF mono and co-culture. […] Cell viability is reported both mono and co-culture models.
Type: functional, Homo sapiens
Set-up: dose or concentration left out as unconfirmed
cond: Culture type Mono-Culture; Transduced with Renilla-dsRed lentivirus
Give bare numbers, in %.

Example entries begin here.
molecule	experimental readout	recorded value
C[C@@H](NC(=O)Nc1cc2[nH]ncc2c(CO)n1)c1ccccc1	Cell Viability	96.7542
CN(C)CCCOc1ccc(-c2cc(NCCCn3cccn3)nc(S(C)(=O)=O)n2)cc1	Cell Viability	116.281
Cn1cc(-c2[nH]c3cc(NC(=O)[C@H](N)C4CCCCC4)cc4c3c2C=NNC4=O)cn1	Cell Viability	107.077
CC(=O)c1cc(-c2cc(C(=O)NC3CC3)ccc2C)c2ncccn12	Cell Viability	132.016
CC(C)(O)CNc1ncc(-c2ccnc(Nc3ccnc(Cl)c3)n2)c(CC2CC2)n1	Cell Viability	187.59

Below are 7 molecules. Give each one its Cell Viability.
1. O=C(Nc1cccnn1)N1CCC(=Cc2cccc(Oc3ccc(C(F)(F)F)cn3)c2)CC1
2. Cn1cc(CNCC2CCN(c3ncc(C(=O)NO)cn3)CC2)c2ccccc21
3. CN(C)C(=O)Cn1cc(-c2nc(C3(c4ccc(-c5cnc(N)nc5)cc4)CC3)no2)cn1
4. CCOC(=O)c1c(/C(C#N)=C\N)c2ccc(Cl)c(Cl)c2n1C
5. CO[C@@H](C)c1c(Nc2ccc([C@H](N(C)C(=O)C3CCS(=O)(=O)CC3)C(F)(F)F)cc2)cnc2cc(Cl)nn12
6. CNC(=O)c1ccc(Nc2ncc(C(F)(F)F)c(NCc3nccnc3N(C)S(C)(=O)=O)n2)cc1
7. CC(=O)Nc1c(C(C)=O)c(=O)n(C)c2nc(-c3ccc(Cl)cc3Cl)c(-c3ccc(Cl)cc3)cc12

90.1757
20.2291
85.1331
82.6208
98.6896
60.766
101.001

Consider the following items and state reported Cell Viability for each.
1. Cc1noc([C@H]2C[C@@H](c3ccc(C(F)(F)F)cc3)CN(C(=O)N3CCS(=O)(=O)C3)C2)n1
2. CN1CCN(C(=O)C(C)(C)c2ccc(C(=O)Nc3cn4cc(-c5ccncc5)ccc4n3)cc2)CC1

1: 116.857; 2: 109.981

For each of the items listed, what is its Cell Viability?
1. CCOC(=O)Nc1cc(-c2ccc(C)c(NS(C)(=O)=O)c2)nn2c(C)nnc12
2. Cc1cnc(-c2cc(Cl)ccc2F)cc1-n1c(=O)n(CC(N)=O)c2ccccc21
3. CC(=O)NCC(=O)N1[C@@H]2CC[C@H]1c1ccc(Nc3ncc(C(F)(F)F)c(NC4CCC4)n3)cc12
4. O=C(O)c1ccc(-c2c[nH]c3ncc(-c4ccccc4)cc23)cc1C1CCCC1
5. COc1cccc2c1c(O)c(C(=O)N(C)c1ccc(C(F)(F)F)cc1)c(=O)n2C

215.442
102.254
42.3421
114.363
110.699

----------
System: Colon cancer organoid
assay remarks: Optimized Dual-Glo assay to identify co-culture induced drug vulnerabilities using donated chemical probes and chemogenomics kinase set in O14 CRC organoid and F14 CAF mono and co-culture. […] Cell viability is reported both mono and co-culture models.
Format: functional, Homo sapiens
Design: dose or concentration left out as unconfirmed
cond: Culture type Mono-Culture; Transduced with Renilla-dsRed lentivirus
Please respond with reported Cell Viability for every item in the list.
Answers are plain numbers, in %.

Check out these entries, answers already filled in.
molecule	value unit	Cell Viability
O=C(NCc1ccccc1)c1ccc(S(=O)(=O)NCc2ccccc2)cc1	%	99.6349
Cc1nccc(COC(=O)N2C[C@@H]3[C@@H](CNC(=O)c4ccc5[nH]nnc5c4)[C@@H]3C2)n1 [BI 3017]	%	94.2589
CCN(CC)S(=O)(=O)Nc1cccc(-c2ccc3c(NC(=O)C4CC4)n[nH]c3c2)c1	%	103.503
CC[C@@H]1CN(C(=O)NCC(F)(F)F)C[C@@H]1c1cnc2cnc3[nH]ccc3n12 [UPADACITINIB]	%	83.332

Would you mind listing Cell Viability for each of the following molecules?
1. CC(C)C(=O)Nc1n[nH]c2cc(-c3cccc(NS(=O)(=O)C4CC4)c3)ccc12
2. COc1ccc2c(O[C@@H]3C[C@H]4C(=O)N[C@]5(C(=O)O)CC5/C=C\CCCCC[C@H](NC(=O)OC5CCCC5)C(=O)N4C3)cc(-c3csc(NC(=O)C(C)C)n3)nc2c1C (stereo partly specified) [BI 1230]

1. 94.5263
2. 104.774

State the recorded Cell Viability for every item in the following list.
1. CCS(=O)(=O)c1cc2cc(C[C@](O)(CC(C)(C)c3ccc(F)cc3C(N)=O)C(F)(F)F)[nH]c2cn1 [BI 653048]
2. COc1cc(C(=O)N2CC[C@@H](O)[C@@H](N)C2)cc2nc(-c3cc4ccccc4n3CC3CC3)n(C)c12.Cl
3. Cn1c(-c2csc(C3CCN(CC4=NC5N=CC=CC5N4)CC3)n2)nc2ccccc21 (stereo unspecified) [BAY-070]
4. Cn1c(C2(NC(=O)c3ccc(NCC4CCCCC4)nc3)CCC2)nc2ccc(/C=C/C(=O)O)cc21 [BI 7656]
5. COc1ccc(COc2ccc(Cc3cnc(N)nc3N)cc2OC)cc1 [GW632580X]
6. C[C@@]1(Cc2ccc(C#N)cc2)C(=O)N(c2cc(Cl)cc(Cl)c2)c2ncc(C(=O)NC3(c4nc(C5CCC5)no4)CC3)n21 [BI 9446]

1: 163.254; 2: 89.8768; 3: 95.1305; 4: 103.836; 5: 94.931; 6: 106.796

// for each molecule below, give its Cell Viability
1. O=C(NOCC1CC1)c1ccc(F)c(F)c1Nc1ccc(I)cc1Cl [CI-1040]
2. Nc1nc(NCc2ccccc2)nc(-c2cccc(CO)c2)n1 [ZINC32547799]
3. CC(=O)NCC(=O)N1[C@@H]2CC[C@H]1c1ccc(Nc3ncc(C(F)(F)F)c(NC4CCC4)n3)cc12 [PF-03814735]
4. C=CC(=O)Nc1ccc2[nH]c(=O)n(C3CCN(Cc4ccc(-c5ccc6c(c5)NC(=O)CO6)cc4)CC3)c2c1 [RL2578]

[42.9063, 97.2983, 69.2613, 81.1144]
